# measured_on: ROCK I (Homo sapiens)
# Sequence (Q13464 whole entry): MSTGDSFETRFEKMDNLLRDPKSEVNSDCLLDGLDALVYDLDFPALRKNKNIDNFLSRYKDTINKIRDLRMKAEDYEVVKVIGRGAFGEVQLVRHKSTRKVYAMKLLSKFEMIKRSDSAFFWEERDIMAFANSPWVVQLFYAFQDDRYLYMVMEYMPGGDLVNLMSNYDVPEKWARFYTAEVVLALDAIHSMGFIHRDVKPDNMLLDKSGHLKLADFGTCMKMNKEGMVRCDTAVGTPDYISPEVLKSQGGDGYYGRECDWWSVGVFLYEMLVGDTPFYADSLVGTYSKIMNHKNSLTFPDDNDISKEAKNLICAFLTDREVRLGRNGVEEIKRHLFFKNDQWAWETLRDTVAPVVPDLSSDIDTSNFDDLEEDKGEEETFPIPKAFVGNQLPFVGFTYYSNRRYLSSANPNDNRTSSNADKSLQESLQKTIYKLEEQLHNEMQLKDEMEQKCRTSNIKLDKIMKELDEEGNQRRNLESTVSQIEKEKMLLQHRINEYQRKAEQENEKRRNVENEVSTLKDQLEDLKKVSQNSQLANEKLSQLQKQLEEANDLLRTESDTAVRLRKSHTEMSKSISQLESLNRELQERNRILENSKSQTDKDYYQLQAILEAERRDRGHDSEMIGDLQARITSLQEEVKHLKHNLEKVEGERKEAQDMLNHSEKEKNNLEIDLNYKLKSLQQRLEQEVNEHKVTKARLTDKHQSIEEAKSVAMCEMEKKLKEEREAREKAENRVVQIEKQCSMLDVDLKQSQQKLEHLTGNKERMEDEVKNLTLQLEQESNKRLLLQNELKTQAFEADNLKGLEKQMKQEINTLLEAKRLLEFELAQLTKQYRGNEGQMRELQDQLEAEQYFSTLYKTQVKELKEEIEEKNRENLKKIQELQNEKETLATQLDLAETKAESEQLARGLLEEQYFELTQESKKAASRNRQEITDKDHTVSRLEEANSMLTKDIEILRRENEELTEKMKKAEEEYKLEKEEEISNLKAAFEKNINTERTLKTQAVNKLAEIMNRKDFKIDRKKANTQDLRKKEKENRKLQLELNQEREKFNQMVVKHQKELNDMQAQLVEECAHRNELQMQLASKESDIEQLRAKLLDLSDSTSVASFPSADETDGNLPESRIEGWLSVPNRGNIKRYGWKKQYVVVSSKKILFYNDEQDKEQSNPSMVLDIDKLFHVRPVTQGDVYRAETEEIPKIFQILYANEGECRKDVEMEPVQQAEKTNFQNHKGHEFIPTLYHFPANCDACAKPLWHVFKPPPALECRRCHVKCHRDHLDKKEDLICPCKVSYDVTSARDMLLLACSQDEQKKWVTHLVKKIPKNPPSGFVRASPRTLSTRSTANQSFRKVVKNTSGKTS
# experimental_details: ROCK-I inhibition assay (radioactive enzyme assay, MBP substrate)
# Type: biochemical
# conditions: Table 6; enzyme inhibition data (Ki)
pKi: −log10 of the molar value.
# pKi per entry
property_measured: pKi

>>> result("CC(C)CCNC(=O)c1csc(-c2ccnc3[nH]ccc23)n1")
"5.30 to 6.30"
>>> result("Clc1ccc(Cl)c(-c2ccnc3[nH]ccc23)c1")
"> 6.30"
>>> result("O=C(c1cc(-c2c(Cl)cnc3[nH]ccc23)c[nH]1)N1CCCC(O)C1 (centres unmarked)")
"5.30 to 6.30"
>>> result("Cc1cc(C)c(-c2ccnc3[nH]ccc23)c(C)c1")
"< 5.40"
>>> result("N#CCCN(CC1CC1)C(=O)c1cc(-c2c(F)cnc3[nH]ccc23)c[nH]1")
"> 6.30"

###

# Ki per entry
# measured_on: JAK3 (Homo sapiens, UniProt P52333)
# Sequence (P52333 whole entry): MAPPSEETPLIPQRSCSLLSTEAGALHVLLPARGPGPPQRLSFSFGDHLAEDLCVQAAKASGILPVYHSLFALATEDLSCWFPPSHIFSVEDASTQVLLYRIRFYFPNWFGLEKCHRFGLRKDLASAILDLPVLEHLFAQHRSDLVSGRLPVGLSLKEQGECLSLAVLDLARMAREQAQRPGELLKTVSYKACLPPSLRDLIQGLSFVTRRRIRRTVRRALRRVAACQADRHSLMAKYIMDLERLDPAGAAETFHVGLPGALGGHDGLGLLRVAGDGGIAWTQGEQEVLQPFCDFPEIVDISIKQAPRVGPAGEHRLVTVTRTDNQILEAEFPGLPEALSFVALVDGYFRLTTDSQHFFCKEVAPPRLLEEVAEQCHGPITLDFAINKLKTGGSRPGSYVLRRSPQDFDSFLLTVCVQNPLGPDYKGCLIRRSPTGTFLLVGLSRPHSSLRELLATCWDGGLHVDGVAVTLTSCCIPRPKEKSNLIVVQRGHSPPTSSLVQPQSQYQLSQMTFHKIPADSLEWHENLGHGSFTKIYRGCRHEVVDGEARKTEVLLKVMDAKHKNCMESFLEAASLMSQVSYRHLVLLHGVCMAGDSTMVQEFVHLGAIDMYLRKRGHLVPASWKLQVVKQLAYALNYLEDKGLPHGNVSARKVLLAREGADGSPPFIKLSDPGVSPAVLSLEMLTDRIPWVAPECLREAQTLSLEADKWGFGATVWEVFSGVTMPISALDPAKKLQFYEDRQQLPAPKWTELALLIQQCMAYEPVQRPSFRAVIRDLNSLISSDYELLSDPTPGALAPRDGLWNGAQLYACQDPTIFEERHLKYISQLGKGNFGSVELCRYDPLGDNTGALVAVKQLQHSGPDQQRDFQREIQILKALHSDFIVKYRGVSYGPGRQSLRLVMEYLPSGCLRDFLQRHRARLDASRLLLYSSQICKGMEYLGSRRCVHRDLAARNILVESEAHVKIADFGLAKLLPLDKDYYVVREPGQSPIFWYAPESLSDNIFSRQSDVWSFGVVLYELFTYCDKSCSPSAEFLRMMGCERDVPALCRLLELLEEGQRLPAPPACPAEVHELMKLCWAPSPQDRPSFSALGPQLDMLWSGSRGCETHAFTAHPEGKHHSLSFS
# experimental_details: JAK3 inhibition assay (33P incorporation into poly(Glu)4Tyr)
# Assay type: biochemical
# conditions: Table 6; enzyme inhibition data (Ki)
property_measured: Ki

>>> result("O=S(=O)(C1CC1)N1CCCC(Nc2c(Cl)cnc3[nH]ccc23)C1 (centres unmarked)")
"< 500 nM"
>>> result("C=CCN(CC=C)C(=O)c1ccc(-c2ccnc3[nH]ccc23)s1")
"< 500 nM"
>>> result("CC(C)(C)OC(=O)N1CCC[C@@H](Nc2c(Cl)cnc3[nH]ccc23)C1")
"< 500 nM"
>>> result("CC(C)CN(C)C(=O)c1ccc(-c2ccnc3[nH]ccc23)s1")
"< 500 nM"
>>> result("O=C(c1csc(-c2ccnc3[nH]ccc23)n1)N(CC1CC1)CC(F)(F)F")
"< 500 nM"

###

# measured_on: JAK2 (Homo sapiens, UniProt O60674)
# Sequence (O60674 whole entry): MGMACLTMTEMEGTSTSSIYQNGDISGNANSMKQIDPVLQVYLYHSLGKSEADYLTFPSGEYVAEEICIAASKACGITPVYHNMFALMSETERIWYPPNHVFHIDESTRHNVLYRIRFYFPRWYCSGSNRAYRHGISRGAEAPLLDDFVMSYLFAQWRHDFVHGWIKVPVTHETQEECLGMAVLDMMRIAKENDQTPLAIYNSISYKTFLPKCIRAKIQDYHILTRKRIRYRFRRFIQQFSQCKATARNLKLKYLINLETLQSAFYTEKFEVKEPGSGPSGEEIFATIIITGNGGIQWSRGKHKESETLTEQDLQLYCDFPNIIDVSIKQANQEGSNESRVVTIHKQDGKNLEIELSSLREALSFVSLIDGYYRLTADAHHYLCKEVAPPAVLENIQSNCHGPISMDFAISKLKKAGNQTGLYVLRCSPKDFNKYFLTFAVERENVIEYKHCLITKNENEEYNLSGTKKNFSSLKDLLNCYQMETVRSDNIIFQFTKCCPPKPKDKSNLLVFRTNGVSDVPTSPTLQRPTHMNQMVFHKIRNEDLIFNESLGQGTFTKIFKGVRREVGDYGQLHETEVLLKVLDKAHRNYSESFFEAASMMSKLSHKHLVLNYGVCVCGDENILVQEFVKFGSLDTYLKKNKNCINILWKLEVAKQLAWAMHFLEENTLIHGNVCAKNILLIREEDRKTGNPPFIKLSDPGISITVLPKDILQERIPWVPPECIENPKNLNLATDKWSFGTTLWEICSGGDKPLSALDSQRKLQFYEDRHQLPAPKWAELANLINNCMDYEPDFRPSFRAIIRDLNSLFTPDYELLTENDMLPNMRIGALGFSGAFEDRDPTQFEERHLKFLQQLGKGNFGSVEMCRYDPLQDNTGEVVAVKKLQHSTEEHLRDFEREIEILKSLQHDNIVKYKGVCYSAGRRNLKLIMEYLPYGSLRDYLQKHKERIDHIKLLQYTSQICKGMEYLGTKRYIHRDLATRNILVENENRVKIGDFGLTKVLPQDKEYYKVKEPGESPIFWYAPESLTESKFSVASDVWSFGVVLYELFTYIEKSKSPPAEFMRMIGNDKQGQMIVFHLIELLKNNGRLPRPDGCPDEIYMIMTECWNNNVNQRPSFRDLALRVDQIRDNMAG
# experimental_details: JAK2 inhibition assay (as Example 3 with JAK-2 enzyme)
# Assay type: biochemical
# conditions: enzyme inhibition, Table 5
# Ki per entry
property_measured: Ki

>>> result("C[C@H](Nc1nc(-c2ccnc3[nH]ccc23)nc2ccccc12)C(=O)NCC(F)(F)F")
"> 5000 nM"
>>> result("N#CC1(c2cccc(-c3ccnc4[nH]ccc34)n2)CCCCC1")
"< 500 nM"
>>> result("C1=C(c2ccnc3[nH]ccc23)CCC1 [compound 27, 4-Cyclopentenyl-1H-pyrrolo[2,3b]pyridine]")
"< 500 nM"
>>> result("COCc1cccc(-c2ccnc3[nH]ccc23)c1")
"< 500 nM"
>>> result("CCOC(=O)c1cccc(-c2ccnc3[nH]ccc23)c1")
"500 to 5000 nM"
>>> result("O=C(c1cccc(-c2ccnc3[nH]ccc23)c1)N1CCOCC1")
"500 to 5000 nM"
>>> result("Oc1cccc(-c2ccnc3[nH]ccc23)c1 [compound 105, 3-(1H-Pyrrolo[2,3-b]pyridin-4-yl)-phenol]")
"< 500 nM"
>>> result("Nc1cccc(-c2ccnc3[nH]ccc23)c1")
"500 to 5000 nM"
>>> result("C=C(c1c(Cl)cnc2[nH]ccc12)C1CCCC1")
"< 500 nM"
>>> result("Cn1cc(-c2c(Cl)cnc3[nH]ccc23)cn1")
"< 500 nM"
>>> result("Nc1ccccc1-c1c(Cl)cnc2[nH]ccc12")
"> 5000 nM"
>>> result("CC(=O)Nc1ccccc1-c1ccnc2[nH]ccc12")
"> 5000 nM"
>>> result("Clc1ccccc1CNc1cccc(-c2ccnc3[nH]ccc23)n1")
"500 to 5000 nM"
>>> result("Clc1cc(-c2ccnc3[nH]ccc23)ccn1")
"500 to 5000 nM"
>>> result("CN(CCO)c1cccc(-c2c(Cl)cnc3[nH]ccc23)n1")
"< 500 nM"
>>> result("OCc1cccc(-c2ccnc3[nH]ccc23)c1")
"500 to 5000 nM"
>>> result("CCN(CC)c1cccc(-c2ccnc3[nH]ccc23)n1")
"< 500 nM"
>>> result("C[C@H](Nc1nc(-c2ccnc3[nH]ccc23)ncc1F)C(=O)NCC(F)(F)F")
"500 to 5000 nM"
>>> result("c1cc(CN2CCCCC2)cc(-c2ccnc3[nH]ccc23)c1")
"500 to 5000 nM"
